Listing of entries alongside the reported pIC50.
- Tested on: Trypanosoma cruzi
- experimental.protocol: Antitrypanosomal activity against bloodstream Trypanosoma cruzi trypomastigotes infected in African green monkey Vero cells assessed as parasite growth inhibition incubated for 48 hrs by resazurin assay
pIC50: −log10 of the molar value.

# molecule, value.qualifier, pIC50
data = [
    ("COc1ccc(/C=N/N=C/c2ccc([N+](=O)[O-])o2)cc1", "=", 5.21),
    ("O=[N+]([O-])c1ccc(/C=N/N=C/c2ccc(O)cc2)s1", "=", 5.52),
    ("C(=N\\N=C\\c1ccco1)/c1ccc(OCc2ccccc2)cc1", "<", 5.00),
    ("NC(=O)N/N=C/c1ccc([N+](=O)[O-])o1 [NITROFURAZONE]", "=", 5.65),
    ("Cc1ccc(/C=N/N=C/c2ccc([N+](=O)[O-])o2)cc1", "=", 5.39),
    ("O=Cc1ccc([N+](=O)[O-])o1", "<", 5.00),
    ("O=C(Cn1ccnc1[N+](=O)[O-])NCc1ccccc1 [BENZNIDAZOLE]", "=", 5.32),
    ("O=[N+]([O-])c1ccc(/C=N/N=C/c2ccc(Br)cc2)o1", "<", 5.00),
    ("O=[N+]([O-])c1ccc(/C=N/N=C/c2ccc(F)cc2)s1", "=", 5.18),
    ("O=[N+]([O-])c1ccc(/C=N/N=C/c2ccc(OCc3ccccc3)cc2)o1", "<", 5.00),
    ("O=[N+]([O-])c1ccc(/C=N/N=C/c2ccccc2)o1", "=", 5.64),
    ("O=[N+]([O-])c1ccc(/C=N/N=C/c2ccccc2)s1", "=", 5.60),
]
